Parameter: optical density. Scope: all listed entries.
- system.tested: T1, Human ACVR2A (human, UniProt P27037 20-135, limits assumed); note: test concentration or dose not given here
- T1 construct: also called activin receptor, type II A
- test.description: ELISA
// note: answer is a bare numeric in OD

Worked set:
{"binder": "370_G11 (antibody, V domains shown) VH: EVQLLESGGGLVQPGGSLRLSCAASGFTFSSYSMNWVRQAPGKGLEWVASINYNSGYTSYADSVKGRFTISRDNSKNTLYLQMNSLRAEDTAVYYCARSANWHDTHLDYWGQGTLVTVSS VL: DIQMTQSPSSLSASVGDRVTITCRASQSIVSYLNWYQQKPGKAPKLVIYAATSRASGVPSRFSGSGSGTDFTLTISSLQPEDFATYYCQQSYSLPLTFGGGTKVEIK", "optical density (OD)": 2.98}
{"binder": "369_F02 (antibody, V domains shown) VH: EVQLLESGGGLVQPGGSLRLSCAASGFTFSSYGMNWVRQAPGKGLEWVASINYNSGYKSYADSVKGRFTISRDNSKNTLYLQMNSLRAEDTAVYYCARSANWHDTALDYWGQGTLVTVSS VL: DIQMTQSPSSLSASVGDRVTITCRASQSIVSYLNWYQQKPGKAPKLVIYAATSRASGVPSRFSGSGSGTDFTLTISSLQPEDFATYYCQQSYDTPLTFGGGTKVEIK", "optical density (OD)": 3.07}
{"binder": "372_B04 (antibody, V domains shown) VH: EVQLLESGGGLVQPGGSLRLSCAASGFTFDSYGMNWVRQAPGKGLEWVANINYNGGYTSYADSVKGRFTISRDNSKNTLYLQMNSLRAEDTAVYYCARSANWHDTALDYWGQGTLVTVSS VL: DIQMTQSPSSLSASVGDRVTITCRASQSILSYVNWYQQKPGKAPKLVIYAATSLASGVPSRFSGSGSGTDFTLTISSLQPEDFATYYCQQSYDSPLTFGGGTKVEIK", "optical density (OD)": 2.61}
{"binder": "369_C04 (antibody, V domains shown) VH: EVQLLESGGGLVQPGGSLRLSCAASGFTFSSYSMNWVRQAPGKGLEWVSNINYNGGYTGYADSVKGRFTISRDNSKNTLYLQMNSLRAEDTAVYYCARSANWHDTALDYWGQGTLVTVSS VL: DIQMTQSPSSLSASVGDRVTITCRASQSILTYVNWYQQKPGKAPKLLIYTTTSLHSGVPSRFSGSGSGTDFTLTISSLQPEDFATYYCQQSYNNPLTFGGGTKVEIK", "optical density (OD)": 1.64}

Query: Tell us which optical density value is on record for 372_C07 (antibody, V domains shown) VH: EVQLLESGGGLVQPGGSLRLSCAASGFTFSDYSMNWVRQAPGKGLEWVSNINYNSGYTSYADSVKGRFTISRDNSKNTLYLQMNSLRAEDTAVYYCARSANWHDTHLDYWGQGTLVTVSS VL: DIQMTQSPSSLSASVGDRVTITCRASQSILSYLNWYQQKPGKAPKLVIYAATSRHSGVPSRFSGSGSGTDFTLTISSLQPEDFATYYCQQSDNTPLTFGGGTKVEIK
Response: 2.41
